The measured values listed here are drawn from patent US20240239894A1.

Would you mind telling me the reported pKd of each entry?
Target: T1, Human B7-H4 ECD-Flag-His10 (monomeric) (human, UniProt Q7Z7D3 25-259)
T1 construct: Minimally biotinylated for KinExA; also called hB7H4-ECD-Flag-His10; B7-H4-FLAG
T1 sequence: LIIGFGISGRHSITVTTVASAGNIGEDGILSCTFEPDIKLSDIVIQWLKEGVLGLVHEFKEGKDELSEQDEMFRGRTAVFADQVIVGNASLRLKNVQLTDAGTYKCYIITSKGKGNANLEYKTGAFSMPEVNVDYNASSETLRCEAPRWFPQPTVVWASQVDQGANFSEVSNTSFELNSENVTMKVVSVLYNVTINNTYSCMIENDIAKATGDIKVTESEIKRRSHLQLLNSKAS
Assay: Octet BLI, hIgG1 on Protein G (n = 1)
When answering, recall that pKd equals minus log10 of the concentration in mol/L, and write that number alone.

Summary for this binder, ZY0EP0-C07 human IgG1 (antibody, V domains shown, also called ZY0EPO-C07) VH: QVQLVESGGVLVKPGGSLRLSCAASGFTLSDYYMSWIRQAPGMGLEWVSYISSSGSTIYYTDSVKGRFTISRDSAKNSLYLQMNSLRAEDTAVYYCARDGVGFDYWGQGTLVTVSS VL: EIVLTQSPGTLSLFPGERATLSCRASQSVSSSYLAWYQQKPGQSPRLLIYAASSRATGIPDRFSGSGSGTDFTLTISRLEPEDFAVYYCQQYGSSPLYTFGQGTKLEIK : pKd is 8.15

Summary for this binder, ZY0EO5-E07 human IgG1 (antibody, V domains shown, also called ZY0E05-E07; E05-E07) VH: QVQLQESGPGLVKPSQTLSLTCTVSGGSISSGGYYWSWIRQHPGKGLEWIGNIYYSGSTYYNPSLKSRVTISVDTSKNQFSLKLSSVTAADTAVYYCAREKALASVIPSGYENYYVVDVWGQGTTVTVSS VL: DIQLTQSPSFLSASVGGRVTITCWASQGIAGYLAWYQQKPGKAPKLLIYAASTLQSGVPSRFSGSGSGTEFTLTISSLQPEDFATYYCQHLNSYPLTFGGGTKVEIK : pKd is 7.84

Summary for this binder, ZY0EPQ-E02 human IgG1 (antibody, V domains shown) VH: QVQLQQWGAGLLKPSETLSLTCAVYGGSFSGYYWNWIRQPPGKGLEWIGEINHSGSTNYNPSLKSRVTILVDTSKNQFSLKLSSVTAADTAVYYCARNLYNWNLDSWGQGTLVTVSS VL: DIQMTQSPSSLSASVGDRVTITCRASQGIRNDLGWYQQKPGRAPKRLIYVASSLQSGVPSRFSGSGSGTEFTLTISSLQPEDFATYYCLQHNSYPRTFGQGTKVEIK : pKd is 7.62
